- Test system: Zika virus NS2B-NS3 protease
- ASSAY PROTOCOL: Primary screen GU AMC qHTS for Zika virus inhibitors (AID 1347154);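 further: 0% = no-inhibitor control and -100% = no-enzyme control; nearly all actives have a fitted effect of over 70% in size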
- MEASUREMENT CONDITIONS: Zika NS2B-NS3 unlinked protease, AMC fluorogenic substrate; series mostly up to 54.1 µM
Inconclusive results are not listed. Activity calls are given as the source filed them. The call rests on the fitted dose curve; in most records, active means well fitted inhibition curve with a large enough effect; inconclusive means small, poorly fitted or top-dose-only effect; inactive means flat fitted curve, though single readings scatter.
Classes to choose from: 1 (yes) (active), 0 (no) (inactive)

Q) Hey, what did the test say about `O=C(O)CCC(=O)Nc1ccc(S(=O)(=O)Nc2nccs2)cc1` ?
A) 0 (no)

Continuing:
Q) Hey, what did the test say about `CCOC(=O)C(C#N)=C(c1ccccc1)c1ccccc1` ?
A) 0 (no)

Q) Hey, what did the test say about `Cc1cc(-c2ccccc2)nnc1NCCN1CCOCC1` ?
A) 0 (no)

Q) Hey, what did the test say about `O=C(O)c1ccc(S(=O)(=O)N(Cl)Cl)cc1` ?
A) 0 (no)

Q) Hey, what did the test say about `O=C(N/N=C/c1ccc([N+](=O)[O-])o1)c1ccc(O)cc1` ?
A) 0 (no)

Q) Hey, what did the test say about `Cc1cc(CC(=O)O)c(C)n1-c1ccc(Cl)cc1` ?
A) 0 (no)
